Overview of recorded IC50 for various molecules
# target_entity: GRK2 (Homo sapiens)
# Construct: purchased SignalChem A14-10G
# Sequence (P25098 whole entry): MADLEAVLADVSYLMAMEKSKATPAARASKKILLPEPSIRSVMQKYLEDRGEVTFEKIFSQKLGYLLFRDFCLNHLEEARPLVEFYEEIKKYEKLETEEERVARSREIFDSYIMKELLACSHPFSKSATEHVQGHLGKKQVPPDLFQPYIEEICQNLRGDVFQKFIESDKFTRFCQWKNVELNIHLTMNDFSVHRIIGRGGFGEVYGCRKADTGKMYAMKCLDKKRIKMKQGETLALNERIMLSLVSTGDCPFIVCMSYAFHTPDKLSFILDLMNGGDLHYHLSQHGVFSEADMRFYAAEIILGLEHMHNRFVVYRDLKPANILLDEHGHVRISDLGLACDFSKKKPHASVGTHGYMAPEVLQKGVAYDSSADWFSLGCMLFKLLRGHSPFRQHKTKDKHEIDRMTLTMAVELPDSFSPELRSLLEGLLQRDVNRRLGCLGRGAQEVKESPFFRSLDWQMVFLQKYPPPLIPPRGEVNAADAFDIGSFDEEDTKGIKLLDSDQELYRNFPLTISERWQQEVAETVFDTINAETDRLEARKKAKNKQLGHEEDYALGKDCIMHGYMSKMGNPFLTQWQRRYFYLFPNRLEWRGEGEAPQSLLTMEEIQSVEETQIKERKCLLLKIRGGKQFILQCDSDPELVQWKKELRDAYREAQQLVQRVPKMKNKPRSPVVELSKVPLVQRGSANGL
# measurement_description: ADPGlo GRK2 Inhibition Assay (Example 8)
# Type: biochemical
# experimental_conditions: Enzyme Assay A, ADPGlo (Example 8); read-out: A: Enzymatic GRK2: IC50 (nM) (Example 8)
The reply should contain only the number, in nM.

Solved cases below.
CC(C)n1cnnc1CNC(=O)c1cccc(NCc2nnc(-c3ccncc3)[nH]2)c1; 210
Cn1c(CNc2cccc(C(=O)NC3CCCOc4ccccc43)c2)nnc1-c1ccncn1 (centres unmarked); 92
Cn1c(CNc2cccc(C(=O)NCc3ccc4c(c3)CCO4)c2)nnc1-c1ccncn1; 16

Query: # IC50 lookup, item Cn1c(CNc2cccc(C(=O)NCc3cnccc3Cl)c2)nnc1-c1ccncn1 [drawing 570]
Response: 4.3

Query: Same question for "Cc1ccn2c(CNC(=O)c3cccc(NCc4nnc(-c5ccncn5)n4C)c3)nnc2c1" please.
Response: 14
